- TESTED TARGET: VirB11 ATPase HP0525 (Helicobacter pylori)
- Sequence (Q7BK04 entry or part of it): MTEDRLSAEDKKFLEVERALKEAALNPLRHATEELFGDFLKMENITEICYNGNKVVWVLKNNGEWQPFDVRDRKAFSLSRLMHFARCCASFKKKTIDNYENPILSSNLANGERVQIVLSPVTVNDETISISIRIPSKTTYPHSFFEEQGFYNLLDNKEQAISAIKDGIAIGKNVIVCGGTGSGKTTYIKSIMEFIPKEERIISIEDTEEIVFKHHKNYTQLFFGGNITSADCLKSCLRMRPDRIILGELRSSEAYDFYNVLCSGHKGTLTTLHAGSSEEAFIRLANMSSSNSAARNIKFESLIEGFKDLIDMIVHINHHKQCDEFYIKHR
- METHOD DESCRIPTION: in vitro ATPase colorimetric assay of HP0525
- Format: biochemical
- Method: The HP0525 protein was produced in the E. coli strain BL21 Star (DE3) (Invitrogen) as described previously.[39] The protein concentration was estimated spectroscopically using a NanoDrop (Thermo Scientific) and a calculated extinction coefficient at 280 nm, based on the amino acid composition. The ATPase activity of HP0525 was measured, with and without a specific amount of compound present, using an in vitro ATPase colorimetric assay kit (Innova Biosciences). […]
VALUE TYPE: pIC50
Reminder that pIC50 means the negative base-10 logarithm of the concentration expressed in mol/L.

>  <GIVEN SMILES>
NCCOCCOC(=O)Nc1ccc(S(=O)(=O)Nc2nccn3cc(-c4ccc5ccccc5c4)nc23)cc1

>  <pIC50>
3.86

$$$$
>  <GIVEN SMILES>
O=C(CCN1C(=O)C=CC1=O)NCCOCCOC(=O)Nc1ccc(S(=O)(=O)Nc2nccn3cc(-c4ccc5ccccc5c4)nc23)cc1

>  <pIC50>
4.74

$$$$
>  <GIVEN SMILES>
C=CCOCCOC(=O)Nc1ccc(S(=O)(=O)Nc2nccn3cc(-c4ccc5ccccc5c4)nc23)cc1

>  <pIC50>
4.34

$$$$

Query pIC50 for `C#CCOCCOC(=O)Nc1ccc(S(=O)(=O)Nc2nccn3cc(-c4ccc5ccccc5c4)nc23)cc1`
4.21
